Test system: PC-3
Assay: Cancer cell growth inhibition, 72 h treatment
Type: cell-based
Settings: Homo sapiens, Prostate cancer PC-3, Alamar Blue
Define the label as Criterion met when EC50 is strictly less than 1000 nM and as Criterion not met in all remaining cases.

1) CC(C)C[C@H](NC(=O)[C@H]1N[C@@H](c2ccccc2)[C@@H]([N+](=O)[O-])[C@@H]1c1ccccc1)B(O)O = Criterion not met
2) CC(C)C[C@H](NC(=O)[C@@H]1CCCN1)B(O)O [MG-319, reference compound] = Criterion not met
3) CC(C)C[C@H](NC(=O)[C@@H]1N[C@H](c2ccccc2)[C@@H]([N+](=O)[O-])[C@@H]1c1ccco1)B(O)O = Criterion met
4) CC(C)C[C@H](NC(=O)[C@@H]1N[C@H](c2ccccc2)[C@@H]([N+](=O)[O-])[C@@H]1c1ccccc1)B(O)O = Criterion not met
5) CC(C)C[C@H](NC(=O)[C@@H]1N[C@H](c2ccccc2)[C@@H]([N+](=O)[O-])[C@@H]1c1cccs1)B(O)O = Criterion not met
6) CC(C)C[C@H](NC(=O)[C@@H]1N[C@H](c2ccc3ccccc3c2)[C@@H]([N+](=O)[O-])[C@@H]1c1ccccc1)B(O)O = Criterion met
7) CC(C)C[C@H](NC(=O)[C@@H]1N[C@H](c2ccccc2)[C@@H]([N+](=O)[O-])[C@@H]1c1ccc(F)cc1)B(O)O = Criterion not met
